- target: KLK1 (human) (Homo sapiens, UniProt P06870)
- Construct: purchased Prospec
- Sequence (P06870 25-262): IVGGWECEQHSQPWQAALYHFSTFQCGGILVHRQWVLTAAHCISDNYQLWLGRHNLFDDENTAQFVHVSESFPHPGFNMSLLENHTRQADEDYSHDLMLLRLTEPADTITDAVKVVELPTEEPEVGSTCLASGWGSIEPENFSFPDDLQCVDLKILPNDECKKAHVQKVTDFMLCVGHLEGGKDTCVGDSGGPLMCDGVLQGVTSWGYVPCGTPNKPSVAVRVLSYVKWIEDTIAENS
- experimentDescription: KLK1 inhibition, fluorogenic substrate H-Pro-Phe-Arg-AMC
- Format: biochemical
pIC50: −log10 of the molar value.
Can you tell me pIC50 for the items I'm about to list?

CCCCCCOC(=O)NC(c1ccc(NC(=N)N)cc1)P(=O)(Oc1ccccc1)Oc1ccccc1 (stereo not shown); 5.60 to 6.00
N=C(N)Nc1ccc(C(NC(=O)OCc2c(F)c(F)c(F)c(F)c2F)P(=O)(Oc2ccccc2)Oc2ccccc2)cc1 (stereo not shown); 6.00 to 7.00

Fill in pIC50 for each of the 4 compounds listed.
1. CSCCOC(=O)NC(c1ccc(NC(=N)N)cc1)P(=O)(Oc1ccccc1)Oc1ccccc1 (stereo not shown)
2. N=C(N)Nc1ccc(C(NC(=O)OCCCC(F)(F)F)P(=O)(Oc2ccccc2)Oc2ccccc2)cc1 (stereo not shown)
3. C#CCOCCOCCOC(=O)NC(c1ccc(NC(=N)N)cc1)P(=O)(Oc1ccccc1)Oc1ccccc1.O=C(O)C(F)(F)F (stereo not shown) [Compound 27, 2,2,2-trifluoroacetate]
4. N=C(N)Nc1ccc(C(NC(=O)OCc2ccccc2)P(=O)(Oc2ccccc2)Oc2ccccc2)cc1 (stereo not shown) [Compound 5a, 2,2,2-trifluoroacetate, reference compound]

5.60 to 6.00
5.00 to 5.60
5.00 to 5.60
6.00 to 7.00

Can you look up the measured pIC50 of COCCOC(=O)NC(c1ccc(NC(=N)N)cc1)P(=O)(Oc1ccccc1)Oc1ccccc1 (stereo not shown) [Compound 29, 2,2,2-trifluoroacetate] for me? 3.60 to 5.00

* * *

Kindly supply the reported pIC50 values for the records listed here.
- target: FXa (Homo sapiens, UniProt P00742)
- Construct: purchased Nodia
- Sequence (P00742 235-488 limits assumed): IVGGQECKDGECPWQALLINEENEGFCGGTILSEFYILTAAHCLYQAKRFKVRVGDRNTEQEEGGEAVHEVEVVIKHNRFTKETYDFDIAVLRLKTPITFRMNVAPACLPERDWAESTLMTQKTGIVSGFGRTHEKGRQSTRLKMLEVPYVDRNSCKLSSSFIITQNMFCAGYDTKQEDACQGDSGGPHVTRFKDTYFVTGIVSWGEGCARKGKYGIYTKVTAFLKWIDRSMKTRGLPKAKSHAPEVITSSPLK
- Sequence (P00742 41-179 partner limits assumed): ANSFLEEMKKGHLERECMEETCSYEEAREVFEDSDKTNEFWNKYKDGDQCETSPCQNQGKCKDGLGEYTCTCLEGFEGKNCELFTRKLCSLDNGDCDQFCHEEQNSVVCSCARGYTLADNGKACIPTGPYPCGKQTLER
- experimentDescription: FXa inhibition, chromogenic substrate Biophen CS-11(32)
- Assay type: biochemical
- experimentalContext: Tris buffer pH 8.3; read-out: IC50 FXa
pIC50: −log10 of the molar value.

Solved cases below.
N=C(N)Nc1ccc(C(NS(=O)(=O)c2ccccc2)P(=O)(Oc2ccccc2)Oc2ccccc2)cc1 (stereo not drawn); 5.00 to 5.60
C#CCOCCOCCOC(=O)NC(Cc1ccc(NC(=N)N)cc1)P(=O)(Oc1ccccc1)Oc1ccccc1 (stereo not drawn) [UPA2, reference compound]; < 3.60
CCN(CC)c1ccc2c(-c3ccccc3C(=O)N3CCN(C(=O)CCCCCCCn4cc(COCCOCCOC(=O)NC(c5ccc(NC(=N)N)cc5)P(=O)(Oc5ccccc5)Oc5ccccc5)nn4)CC3)c3ccc(=[N+](CC)CC)cc-3oc2c1 (stereo not drawn); 5.00 to 5.60
N=C(N)Nc1ccc(C(NC(=O)OCCOCCOCc2cn(CCOCCOCCOCCNC(=O)CCCC[C@H]3SC[C@H]4NC(=O)N[C@H]43)nn2)P(=O)(Oc2ccccc2)Oc2ccccc2)cc1 (stereo partly drawn); 3.60 to 5.00
COCCOCCOC(=O)NC(c1ccc(NC(=N)N)cc1)P(=O)(Oc1ccccc1)Oc1ccccc1.O=C(O)C(F)(F)F (stereo not drawn) [Compound 28, 2,2,2-trifluoroacetate]; < 3.60

Now consider a different molecule.
# lookup: pIC50 of N=C(N)Nc1ccc(C(NC(=O)OCCOc2ccccc2)P(=O)(Oc2ccccc2)Oc2ccccc2)cc1.O=C(O)C(F)(F)F (stereo not drawn) [Compound 30, 2,2,2-trifluoroacetate] 3.60 to 5.00
